# Tested on: Skin-2 model ZK1301
# assay_protocol: Skin-2 model: mRNA expression by RT-PCR, semi-quantitative;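 also: Three-dimensional human skin equivalent of dermal fibroblasts and foreskin keratinocytes at an air-liquid interface, exposed for 10 or 48 h, mRNA measured in total RNA by RT-PCR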
# experimental_setup: Skin-2 model, 1 µM; semi quantitative mRNA change vs control
measure: IL-6

CC1=C(/C=C/C(C)=C/C=C/C(C)=C/C(=O)O)C(C)(C)CCC1 [RA, All-trans-retinoic acid] | -1
C[C@H]1C[C@H]2[C@@H]3CCC4=CC(=O)C=C[C@]4(C)[C@@]3(F)[C@@H](O)C[C@]2(C)[C@@]1(O)C(=O)CO | -2
C=C1C(=CC=C2CCCC3(C)C2CCC3C(C)CCCC(C)(C)O)CC(O)CC1O (stereo not shown) | -1

Lab note: compound O=C(O)Cc1cc(I)c(Oc2ccc(O)c(I)c2)c(I)c1 tested on Skin-2 model ZK1301; recorded IL-6 was -0.5
